- EXPERIMENTAL SYSTEM: UniProtKB P35372
- Sequence (P35372 whole entry): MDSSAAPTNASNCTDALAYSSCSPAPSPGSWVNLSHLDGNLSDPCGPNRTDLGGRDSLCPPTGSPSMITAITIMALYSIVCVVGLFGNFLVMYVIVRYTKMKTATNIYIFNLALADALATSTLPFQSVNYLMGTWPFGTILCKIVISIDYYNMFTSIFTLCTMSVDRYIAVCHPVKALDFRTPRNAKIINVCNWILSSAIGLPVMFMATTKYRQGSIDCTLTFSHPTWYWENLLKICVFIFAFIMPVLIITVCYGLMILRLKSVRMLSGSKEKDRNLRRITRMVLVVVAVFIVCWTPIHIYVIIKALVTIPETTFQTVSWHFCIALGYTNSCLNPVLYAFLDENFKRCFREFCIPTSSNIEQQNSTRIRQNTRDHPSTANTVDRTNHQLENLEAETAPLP
- PROTOCOL DESCRIPTION: Displacement of [3H]DAMGO from human mu opioid receptor expressed in CHO cell membranes by microbeta scintillation counting analysis
- APPLIED CONDITIONS: read-out: Ki
READOUT: Ki (nM)
Numbers only, in nM.

| CHEMICAL SMILES | Ki [nM] |
| --- | --- |
| O=C1/C(=C/c2cccc(F)c2)C[C@@]2(O)[C@H]3Cc4ccc(O)c5c4[C@@]2(CCN3CC2CC2)[C@H]1O5 | 10.7 |
| O=C1/C(=C/c2ccc(I)cc2)C[C@@]2(O)[C@H]3Cc4ccc(O)c5c4[C@@]2(CCN3CC2CC2)[C@H]1O5 | 19.9 |
| COc1ccc2c3c1O[C@H]1C(=O)/C(=C/c4ccccc4)C[C@@]4(O)[C@@H](C2)N(CC2CC2)CC[C@]314 | 499 |
| CN(C)c1ccc(/C=C2\C[C@@]3(O)[C@H]4Cc5ccc(O)c6c5[C@@]3(CCN4CC3CC3)[C@@H](O6)C2=O)cc1 | 17.2 |
| O=C1/C(=C/c2ccc(F)cc2)C[C@@]2(O)[C@H]3Cc4ccc(O)c5c4[C@@]2(CCN3CC2CC2)[C@H]1O5 | 20.9 |
| COc1ccc(/C=C2\C[C@@]3(O)[C@H]4Cc5ccc(O)c6c5[C@@]3(CCN4CC3CC3)[C@@H](O6)C2=O)cc1 | 5.16 |

Continue with the next molecule.
[Q] Tell me its Ki given O=C1/C(=C/c2ccccc2F)C[C@@]2(O)[C@H]3Cc4ccc(O)c5c4[C@@]2(CCN3CC2CC2)[C@H]1O5 as the entry.
[A] 12.8

meta.source: ChEMBL document CHEMBL4043100
